molecular target: human PDE4B2 (Homo sapiens); construct: FLAG; made in house; host or cells: COS-1 cells (plasmid amplified in E. coli); test: Human PDE4B activity inhibition test (SPA, [3H]-cAMP); assay type: biochemical; conditions: FLAG-tagged human PDE4B2 purified from COS-1 cells; 30 min at room temperature; read-out: IC50 (nM), human PDE4B inhibitory activity
Structures can show the parent of a compound that is named as a salt.
Parameter measured: IC50 (nM)

Some compounds with recorded IC50:
NC(=O)c1c2c(c(N3CCC4(CO)CC4C3)n3c1nc1ccccc13)CCC2 (centres unmarked) [Example 23, hydrochloride]    42
NC(=O)c1c2c(c(N3CCC4(CCNC4)CC3)n3c1nc1ccccc13)CCC2 [Example 26]    13
COC1(CO)CCN(c2c3c(c(C(N)=O)c4nc5ccccc5n24)CCSC3)CC1 [Example 16]    15

1. CC1(C)CCc2c(c(N3CCC(C)(CO)CC3)n3c(nc4ccccc43)c2C(N)=O)C1 [Example 4]
2. NC(=O)c1c2c(c(N3CCC4(CC3)CNC4)n3c1nc1ccccc13)CCC2 [Example 25, dihydrochloride]
3. COC1(CO)CCN(c2c3c(c(C(N)=O)c4nc5c(n24)CCCC5)CCC3)CC1 [Example 15]
4. CC1(CN)CCN(c2c3c(c(C(N)=O)c4nc5ccccc5n24)CCC3)CC1 [Example 18, dihydrochloride]
5. CO[C@@]1(CO)CCN(c2c3c(c(C(N)=O)c4nc5ccccc5n24)CC(C)(C)C3)C[C@@H]1F (relative stereo) [Example 22]
Kindly order the items shown according to IC50, from the highest value down. Dear reader, please state the labels in the requested order.
1, 3, 4, 5, 2
(1: 86 nM, 3: 26 nM, 4: 18 nM, 5: 11.8 nM, 2: 8.2 nM)

P. CC1(CO)CCN(c2c3c(c(C(N)=O)c4nc5ccccc5n24)CCC3)CC1 [Example 2]
Q. COC1(CO)CCN(c2c3c(c(C(N)=O)c4nc5ccccc5n24)CCC3)CC1 [Example 8]
Identify the entry with the larger IC50. Options: P and Q Lab note: record the label of whichever item you select.
P

----------
biological target: human PDE4B2 (Homo sapiens, UniProt Q07343); construct: FLAG; made in house; host or cells: COS-1 cells (plasmid amplified in E. coli); assay: Human PDE4B activity inhibition test (SPA, [3H]-cAMP); assay type: biochemical; details: FLAG-tagged human PDE4B2 purified from COS-1 cells; 30 min at room temperature; read-out: IC50 (nM), human PDE4B inhibitory activity
Sequence (Q07343 1-564 isoform Q07343-2): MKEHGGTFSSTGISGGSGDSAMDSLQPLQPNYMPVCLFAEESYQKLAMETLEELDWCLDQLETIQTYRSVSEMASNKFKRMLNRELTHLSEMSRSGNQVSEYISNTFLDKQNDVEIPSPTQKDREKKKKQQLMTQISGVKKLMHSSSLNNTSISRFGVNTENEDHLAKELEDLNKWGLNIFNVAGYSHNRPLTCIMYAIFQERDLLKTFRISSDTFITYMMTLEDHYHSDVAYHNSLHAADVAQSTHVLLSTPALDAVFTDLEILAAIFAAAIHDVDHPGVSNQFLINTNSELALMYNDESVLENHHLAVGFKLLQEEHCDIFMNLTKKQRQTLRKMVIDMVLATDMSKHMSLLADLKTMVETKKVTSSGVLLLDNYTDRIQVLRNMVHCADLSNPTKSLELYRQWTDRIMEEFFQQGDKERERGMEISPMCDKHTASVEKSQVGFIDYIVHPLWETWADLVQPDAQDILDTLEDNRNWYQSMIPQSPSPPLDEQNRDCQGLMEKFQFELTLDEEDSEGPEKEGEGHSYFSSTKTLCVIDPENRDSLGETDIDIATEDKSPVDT
Parameter measured: IC50 (nM)

COC1(CO)CCN(c2c3c(c(C(N)=O)c4nc5ccccc5n24)CC(C)(C)C3)CC1    2.7
COC1(CO)CCN(c2c3c(c(C(N)=O)c4nc5ccccc5n24)C2CCC3C2)CC1 (stereo not shown)    3.3

1. N#CC1(CO)CCN(c2c3c(c(C(N)=O)c4nc5ccccc5n24)CCC3)CC1
2. CO[C@]1(CO)CCN(c2c3c(c(C(N)=O)c4nc5ccccc5n24)CCC3)C[C@H]1F (relative stereo)
Lower value of IC50 belongs to which: 1 or 2 ? Lab note: record the label of whichever item you select.
1

Source listed as patent US8822688B2.
